- PROTOCOL_TEXT: Pharmacokinetic study, single I.V. bolus dose in beagle dog
- Type: in vivo
- CONDITION_INFO: iv, single I.V. bolus dose 15 mg/kg (table title), Compound No. 4 and linezolid in 5% Tween, other compounds in cyclodextrin, serum, read-out: C-12 hr
MEASUREMENT_KIND: concentration at 12 hr (ng/mL)

SMILES_ENTRY | concentration at 12 hr (ng/mL)
CC(=O)NC[C@H]1CN(c2ccc(N3CCC(O)CC3)c(F)c2)C(=O)O1 | 0

P = CC(=O)NC[C@H]1CN(c2ccc(N3CCC(=NO)CC3)c(F)c2)C(=O)O1
Q = CC(=O)NC[C@H]1CN(c2ccc(N3CCC4(CC3)OCCO4)c(F)c2)C(=O)O1
R = CC(=O)NC[C@H]1CN(c2ccc(N3CCC(CC#N)CC3)c(F)c2)C(=O)O1
Problem: I would appreciate it if you could sort these 3 compounds by concentration at 12 hr, starting from the smallest number. Lab note: final answer is the ordered label list.
Solution: P, Q, R
(P: 0 ng/mL, Q: 1190 ng/mL, R: 2640 ng/mL)

###

- PROTOCOL_TEXT: Pharmacokinetic study, single oral dose in beagle dog
- Assay type: in vivo
- CONDITION_INFO: single oral dose 5 mg/kg p.o., Compound No. 4 and linezolid in 5% Tween, other compounds in cyclodextrin, serum, read-out: C-12 hr
MEASUREMENT_KIND: concentration at 12 hr (ng/mL)

Below are worked cases with known answers.
SMILES_ENTRY | NUMERIC_RESULT
CC(=O)NC[C@H]1CN(c2ccc(N3CCC(CC#N)CC3)c(F)c2)C(=O)O1 | 2840
CC(=O)NC[C@H]1CN(c2ccc(N3CCOCC3)c(F)c2)C(=O)O1 | 0
CC(=O)NC[C@H]1CN(c2ccc(N3CCC(=O)CC3)c(F)c2)C(=O)O1 | 0
CC(=O)NC[C@H]1CN(c2ccc(N3CCC(=NO)CC3)c(F)c2)C(=O)O1 | 0

P = CC(=O)NC[C@H]1CN(c2ccc(N3CCC(O)CC3)c(F)c2)C(=O)O1
Q = CC(=O)NC[C@H]1CN(c2ccc(N3CCC4(CC3)OCCO4)c(F)c2)C(=O)O1
Problem: // which entry reports the smaller concentration at 12 hr, P or Q ? Mark your selection by writing its label.
Solution: P
(P: 0 ng/mL, Q: 1840 ng/mL)

All values here come from patent US20040235900A1.
